SUBJECT_OF_TEST: murine CCR2 (Mus musculus)
Construct: host or cells: U2OS β-arrestin cell line
Sequence (P51683 whole entry): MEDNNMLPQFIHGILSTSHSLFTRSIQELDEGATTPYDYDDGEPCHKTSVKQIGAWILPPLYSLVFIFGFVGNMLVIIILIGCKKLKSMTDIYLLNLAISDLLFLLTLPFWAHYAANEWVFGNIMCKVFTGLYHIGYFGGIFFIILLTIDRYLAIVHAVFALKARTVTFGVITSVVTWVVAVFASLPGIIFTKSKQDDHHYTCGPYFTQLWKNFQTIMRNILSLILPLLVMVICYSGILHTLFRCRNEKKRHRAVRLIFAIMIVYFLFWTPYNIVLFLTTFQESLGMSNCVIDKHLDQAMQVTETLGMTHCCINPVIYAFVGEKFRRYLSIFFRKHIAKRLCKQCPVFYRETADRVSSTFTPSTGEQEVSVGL
PROTOCOL_DESCRIPTION: Functional β-arrestin recruiting test with human MCP-1 (B-2a)
Assay type: cell-based
SETUP_CONDITIONS: U2OS β-arrestin cell line transfected with murine CCR2; agonist human MCP-1 at EC50 (about 3 nM); in some cases means of several determinations
Catalogue of log10 IC50 readings, one per entry.
MEASURED_METRIC: log10 IC50 (log10 of the value in nM)

COMPOUND	MEASURED_METRIC	TEST_VALUE
O=c1[nH]c(-c2ncc(C(F)(F)F)cc2Cl)nc(C(F)(F)F)c1Cc1ccc(Cl)c(Cl)c1 [Example 21]	log10 IC50	2.36
O=c1[nH]c(Cc2ccsc2)nc(C(F)(F)F)c1Cc1ccc(Cl)c(Cl)c1 [Example 97]	log10 IC50	2.69
COc1cccnc1-c1nc(C(F)(F)F)c(Oc2ccc(Cl)c(C(F)(F)F)c2)c(=O)[nH]1 [Example 40]	log10 IC50	1.08
O=C1OCCN1c1nc(C(F)(F)F)c(Cc2ccc(Cl)c(Cl)c2)c(=O)[nH]1 [Example 112]	log10 IC50	2.58
O=c1[nH]c(-c2cn[nH]c2)nc(C(F)(F)F)c1Oc1ccc(Cl)c(Cl)c1 [Example 66]	log10 IC50	2.04
O=c1[nH]c(-c2cc[nH]n2)nc(C(F)(F)F)c1Cc1ccc(Cl)c(C(F)(F)F)c1 [Example 72]	log10 IC50	1.28
O=c1[nH]c(Cc2ccno2)nc(C(F)(F)F)c1Oc1ccc(Cl)c(Cl)c1 [Example 95]	log10 IC50	1.89
O=c1[nH]c(-c2cn[nH]c2)nc(C(F)(F)F)c1Oc1ccc(Cl)c(C(F)(F)F)c1 [Example 70]	log10 IC50	1.75
